assayedTarget: HLA-A*1101 (human)
assayRemarks: competition with a 125I-labelled standard peptide for purified HLA-A*1101, gel filtration
experimentalContext: scale: ratio
recordedEndpoint: binding affinity ratio

> print(dat)
                                     binder  resultnumber
1  DIESKVDPSK (modifications not checked) [PSM 714 peptide …]        0.0002
2  DMSLLKNR (modifications not checked) [PSA 98 peptide DMSLLKNR]        0.0001
3  EIASKFSER (modifications not checked) [PSM 641 peptide …]        0.0002
4  DTFPTDPIK (modifications not checked) [PAP 51 peptide …]        0.0001
5  DVLLSYPNK (modifications not checked) [PSM 114 peptide …]         0.001
